Biological target: T1, GST-FLJ 10324 PDZ domain 1 [GST: P08515]
T1 chain: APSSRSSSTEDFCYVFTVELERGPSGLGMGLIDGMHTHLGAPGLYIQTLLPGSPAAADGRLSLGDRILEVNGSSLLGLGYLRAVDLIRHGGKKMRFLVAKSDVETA
Test: G' assay; note: key of the grades not given here
MEASURED QUANTITY: Classification (A450 class)
State just the number; it will be interpreted in A450 class.

Tell me the measured Classification of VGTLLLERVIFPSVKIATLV (modifications not checked) [AdenoE4 typ9] , please.
3

Let us now turn to GPVPGEPAKPKTSAHHATFV (modifications not checked) [RGS12 (regulator of G-protein signaling 12]
1

Could you do the same for DTLLLTENEGDKTEEQVSYV (modifications not checked) [serotonin receptor 5HT-2B] , please?
2

What would you report for SLKPGTVLPPPPYRHRNTVV (modifications not checked) [ErbB-4 receptor] ?
1

Entry to check: KDITSDSENSNFRNEIQSLV (modifications not checked) [CD95]
1

Try RELVDRGEVRQFTLRHWLKV (modifications not checked) [Dopamine transporter] next.
5

Moving on to KTMPAAMYRLLTAQEQPVYI (modifications not checked) [MINT-1]
5

Check PPATPSPRLALPAHHNATRL (modifications not checked) [Na+/Pi cotransporter 2] too.
1
